target.desc: PAK4 (Homo sapiens)
Construct: purchased Reaction Biology Corporation (Malvern, PA, USA)
Sequence (O96013 whole entry): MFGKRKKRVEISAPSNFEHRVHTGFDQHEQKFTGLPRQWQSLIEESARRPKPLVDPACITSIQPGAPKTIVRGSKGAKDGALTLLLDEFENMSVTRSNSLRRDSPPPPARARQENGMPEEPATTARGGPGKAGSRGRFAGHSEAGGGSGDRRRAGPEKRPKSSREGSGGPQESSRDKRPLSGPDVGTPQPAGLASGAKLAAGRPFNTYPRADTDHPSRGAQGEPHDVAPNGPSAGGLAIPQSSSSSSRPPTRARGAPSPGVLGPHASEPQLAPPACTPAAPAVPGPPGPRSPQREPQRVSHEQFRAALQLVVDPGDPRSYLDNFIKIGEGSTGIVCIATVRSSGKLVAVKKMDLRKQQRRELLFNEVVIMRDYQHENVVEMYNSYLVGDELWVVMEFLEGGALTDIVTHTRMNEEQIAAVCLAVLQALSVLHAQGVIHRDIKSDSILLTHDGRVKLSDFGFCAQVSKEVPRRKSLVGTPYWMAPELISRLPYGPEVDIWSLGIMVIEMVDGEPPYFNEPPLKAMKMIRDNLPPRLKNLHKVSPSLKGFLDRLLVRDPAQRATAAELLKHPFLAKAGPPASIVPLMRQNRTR
protocol: HotSpot kinase assay (Reaction Biology Corp.), PAK4 enzyme inhibition
Assay type: biochemical
test.conditions: relative percentage inhibition at 20 μM of compounds with staurosporine; ATP 10 μM; read-out: PAK4 enzyme inhibition % inhibitory activity
Label true when inhibition at 20 µM >= 60%; otherwise false.

Observe how each entry below is paired with its result.
compound | class.assignment
Cc1nn(-c2cccc(C#CC(C)(O)CO)c2)c2ncnc(N)c12 (stereo not drawn) [Compound 14c] | false
CC(C)(O)C#Cc1cccc(-n2c3ccccc3c3c(N)nccc32)c1 [Compound 10a] | false
CC(O)(C#Cc1cccc(-n2c3ccccc3c3c(N)nccc32)c1)CO (stereo not drawn) [Compound 10c] | false
Nc1ncnc2c1c(CCCN1CCCCC1)nn2-c1cccc(C#CC2(O)CCCCC2)c1 [Compound 18b] | true
Cc1nn(-c2cccc(C#CC3(O)CCCCC3)c2)c2ncnc(N)c12 [Compound 14b] | true
Cc1nn(-c2cccc(C#CC(C)(O)c3ccccc3)c2)c2ncnc(N)c12 (stereo not drawn) [Compound 14d] | true
Nc1nccc2c1c1ccccc1n2-c1cccc(C#CC2(O)CCCCC2)c1 [Compound 10b] | false

Now turn to the next compound.
Query: Could you verify whether the entry Nc1ncnc2c1c(CCCN1CCOCC1)nn2-c1cccc(C#CC2(O)CCCCC2)c1 [Compound 18a] shows inhibition at 20 µM of no less than 60%?
Result: true
